Source of measurements: ChEMBL document CHEMBL1201862

- System: MDA-MB-231
- METHOD: NCI tumour cell line growth inhibition, 48 h
The source made the active and inactive calls. Rule as the data show it: active = GI50 up to about 1.1 µM and inactive = higher. Positions of bridges follow the written chain, without caps; N, C: chain ends. Non-standard residues stand in square brackets, D forms with d. Residues, ends and D or L forms follow the SMILES beside them. ξ: configuration not given here. *: point of attachment. X28 = O=C(/C=C/C=C/C=C/C=C/C=C/C(=O)*)NC1=C(O)CCC1=O; Pro(4R-Me) = C[C@H]1CN[C@H](C(=O)O)C1; NMeA = CN[C@@H](C)C(=O)O; ξF = NC(Cc1ccccc1)C(=O)O; ξA = CC(N)C(=O)O
Reply using exactly one outcome from TRUE for active, FALSE for inactive

Prompt line: State the result this test recorded for CC1NC(=O)[C@H](C)N(C)C(=O)[C@@H]2CCCN2C(=O)[C@@H](NC(=O)C(Cc2ccccc2)NC(=O)/C=C/C=C/C=C/C=C/C=C/C(=O)NC2=C(O)CCC2=O)COC(=O)[C@@H]2C[C@@H](C)CN2C1=O (stereo partly drawn) (X28-[ξF]SP[NMeA][ξA][Pro(4R-Me)]; ester 2-C) .
Response line: FALSE

Prompt line: State the result this test recorded for CN(C)[C@@H]1C(O)=C(C(=O)NCNc2nc3[nH]nnc3c(=O)[nH]2)C(=O)[C@@]2(O)C(O)=C3C(=O)c4c(O)cccc4[C@@](C)(O)[C@H]3C[C@@H]12 .
Response line: TRUE

Prompt line: State the result this test recorded for Cn1c(C(O)C2(c3cccnc3)SCCCS2)cc2ccccc21 (configuration not stated) .
Response line: FALSE

Prompt line: State the result this test recorded for Cc1ccc(-c2cc[n+]3c(n2)oc2ccccc23)cc1 .
Response line: FALSE

Prompt line: State the result this test recorded for CN(C)CCNC(=O)c1cccc2nc3c(C(=O)NCCN(C)C)cccc3nc12 .
Response line: FALSE

Prompt line: State the result this test recorded for C/C=C1/CN2CCC34c5ccccc5N(C)C23C2CC1C4(C(=O)OC)C(O)O2 (configuration not stated) .
Response line: FALSE

Prompt line: State the result this test recorded for O=C1Nc2ccc(Br)cc2/C1=N/Nc1ccccc1[N+](=O)[O-] .
Response line: FALSE
